# Target desc: UniProt P43220
# Sequence (P43220 24-463, species assumed): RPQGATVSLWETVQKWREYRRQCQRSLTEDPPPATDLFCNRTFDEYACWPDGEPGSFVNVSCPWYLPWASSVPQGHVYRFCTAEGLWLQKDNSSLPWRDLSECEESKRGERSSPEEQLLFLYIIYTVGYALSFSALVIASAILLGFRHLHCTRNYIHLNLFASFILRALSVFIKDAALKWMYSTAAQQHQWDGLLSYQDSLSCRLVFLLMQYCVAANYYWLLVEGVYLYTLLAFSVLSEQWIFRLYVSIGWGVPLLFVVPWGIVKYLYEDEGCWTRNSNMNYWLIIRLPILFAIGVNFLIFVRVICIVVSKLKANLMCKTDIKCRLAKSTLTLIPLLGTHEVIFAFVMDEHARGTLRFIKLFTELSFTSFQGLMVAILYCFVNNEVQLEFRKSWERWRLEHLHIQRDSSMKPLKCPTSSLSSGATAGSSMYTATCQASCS
# Measurement protocol: GLP1R cAMP assay (HTRF cAMP detection, agonist activity)
# Format: cell-based
# Design: host or cells: Flp-In-293
# Test context: Flp-In-293-GLP1R cells, 30 min at 37° C., read-out: EC50 (nM) Assay 1
Assay metric: EC50

{"Compound": "N#Cc1ccc(COc2cccc(C34CCN(Cc5nc6ccc(C(=O)O)cc6n5C[C@@H]5CCO5)CC3C4)n2)c(F)c1 (single isomer, unassigned) [Compound 1-1-A]", "EC50": "0.028 nM"}
{"Compound": "N#Cc1ccc(COc2cccc(C34CCN(Cc5nc6ccc(C(=O)O)cc6n5C[C@@H]5CCO5)CC3C4)c2)c(F)c1 (single isomer, unassigned) [Compound 1-9-B]", "EC50": "1.05 nM"}
{"Compound": "N#Cc1ccc(COc2cccc(N3CC4CN(Cc5nc6ccc(C(=O)O)cc6n5Cc5ncco5)CC4C3)n2)c(F)c1 (stereo not shown) [Compound 2-26]", "EC50": "> 4 nM"}

Lookup: Test system UniProt P43220; read-out EC50; what value for N#Cc1ccc(COc2cccc(N3CC4CCC(C3)N4Cc3nc4ccc(C(=O)O)cc4n3C[C@@H]3CCCO3)n2)c(F)c1 [Compound 2-10] ?
Found: > 4 nM
